The origin of these recorded values is PubChem BioAssay AID1159580.

measurementDescription: chemical genetic growth profiling, strain panel (AID 1159580);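 also: tested at 20 µM; growth read once vehicle control cultures reached saturation at 30 °C; lower values mean less growth of the strain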
protocolConditions: S. cerevisiae deletion strains, growth OD, locus YCL061C, strain MRC1
The campaign covered roughly 5,500 compounds. About 2,000 (36%) were called active. About 18% were inconclusive and are not listed. Rule as the data show it: active = normalized growth mostly below about 0.91 (no sharp cut-off); inconclusive = no clear call, values can overlap the other calls; inactive = mostly above about 0.92. The list shows a part of the results.
Possible outcomes: active, inactive

- compound: "CC(=O)O[C@@H]1CC2C(C)(CC[C@H](O)C2(C)C)C2CC[C@]3(C)C(=CC(=O)O[C@H]3c3ccoc3)C21C (some centres undefined)"
  assignedCategory: "inactive"
- compound: "O=c1c2cc(O)c(O)cc2oc2cc(O)c(C3O[C@H](CO)[C@H](O)[C@@H](O)[C@H]3O)c(O)c12 (some centres undefined)"
  assignedCategory: "inactive"
- compound: "O=C(Oc1cccc2cccnc12)c1ccccc1"
  assignedCategory: "inactive"
- compound: "C[N+]1(C)C[C@H](O)[C@H](C(=O)[O-])C1"
  assignedCategory: "inactive"
- compound: "CC1(C)S[C@@H]2[C@H](NC(=O)C(C(=O)O)c3ccccc3)C(=O)N2[C@H]1C(=O)O (some centres undefined)"
  assignedCategory: "inactive"
- compound: "COC(=O)[C@H]1[C@H]2C[C@H]3c4[nH]c5cc(OC)ccc5c4CCN3C[C@H]2C[C@@H](OC(=O)c2cc(OC)c(OC)c(OC)c2)[C@@H]1OC"
  assignedCategory: "inactive"
- compound: "CNC(=S)N/N=C\\c1cc(Br)cc(Br)c1O"
  assignedCategory: "active"
- compound: "CCC(=O)NCC[C@@H]1CCc2ccc3c(c21)CCO3"
  assignedCategory: "inactive"
- compound: "CC1(C)C(O)CC(=O)C2(C)C1CC(O)C1(C)C2CCC2(C)C(c3ccoc3)OC(=O)C3OC321 (centres undefined)"
  assignedCategory: "inactive"
